Molecular target: human GPR119 (hGPR119) (Homo sapiens)
Sequence (Q8TDV5 1-335): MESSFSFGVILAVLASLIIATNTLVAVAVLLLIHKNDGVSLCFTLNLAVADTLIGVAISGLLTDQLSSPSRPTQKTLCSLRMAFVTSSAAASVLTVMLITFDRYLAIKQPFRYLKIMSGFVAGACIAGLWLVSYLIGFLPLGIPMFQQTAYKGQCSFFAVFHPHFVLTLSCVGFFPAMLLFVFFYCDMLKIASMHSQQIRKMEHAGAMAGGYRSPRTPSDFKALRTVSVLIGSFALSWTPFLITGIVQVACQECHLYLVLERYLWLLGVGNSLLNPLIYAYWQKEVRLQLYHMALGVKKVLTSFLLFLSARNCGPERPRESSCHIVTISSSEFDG
Assay: cAMP accumulation assay (cAMP Gs dynamic HTRF kit)
Conditions: CHO-K1 cells stably expressing hGPR119; cAMP accumulation; 4-parameter fit
Reported Endpoint: EC50

>>> recorded_measurement("CC(C)OC(=O)N1CCC2(CCC2CCOc2cc(F)c(CC(=O)N3CC(CNC[C@H](O)[C@@H](O)[C@H](O)[C@H](O)CO)C3)c(F)c2)CC1 (stereo partly drawn)")
"1000 to 10000 nM"
>>> recorded_measurement("O=C(OCCC1CCN(c2ncc(Cl)cn2)CC1)c1ccc(CC(=O)N2CC(CNC[C@H](O)[C@@H](O)[C@H](O)[C@H](O)CO)C2)c(F)c1 (racemic)")
"1000 to 10000 nM"

Prompt: For the compound `O=C(Cc1ccc(OCCCC2CCN(c3ncc(Cl)cn3)CC2)cc1F)NCCCCCC(=O)NC(CO)CO` , report EC50.
Response: 100 to 1000 nM

Prompt: For the compound O=C(Cc1ccc(OCCCC2CCN(c3ncc(Cl)cn3)CC2)cc1F)N1CCC(O)(CNC[C@H](O)[C@H](O)[C@H](O)CO)C1 (stereo partly drawn) , report EC50.
Response: ≤ 100 nM

Prompt: For the compound `O=C(NCCNCCC1CN(C(=O)Cc2ccc(OCCCC3CCN(c4ncc(Cl)cn4)CC3)cc2F)C1)NC(CO)(CO)CO` , report EC50.
Response: 100 to 1000 nM

Prompt: For the compound `NS(=O)(=O)CCCCNC(=O)Cc1ccc(OCCCC2CCN(c3ncc(Cl)cn3)CC2)cc1F` , report EC50.
Response: ≤ 100 nM

Prompt: For the compound O=C(Cc1c(F)cc(OCCCC2CCN(c3ncc(Cl)cn3)CC2)cc1F)N1CCC(O)(CNCC(CO)(CO)CO)C1 (stereo not drawn) , report EC50.
Response: ≤ 100 nM

Prompt: For the compound `O=C(NC(CO)(CO)CO)[C@H]1CCN(C(=O)Cc2ccc(OCCCC3CCN(c4ncc(Cl)cn4)CC3)cc2F)C1` , report EC50.
Response: ≤ 100 nM

* * *

Entries annotated with measured pEC50
Target: human GPR119 (hGPR119) (Homo sapiens)
Sequence (Q8TDV5 1-335): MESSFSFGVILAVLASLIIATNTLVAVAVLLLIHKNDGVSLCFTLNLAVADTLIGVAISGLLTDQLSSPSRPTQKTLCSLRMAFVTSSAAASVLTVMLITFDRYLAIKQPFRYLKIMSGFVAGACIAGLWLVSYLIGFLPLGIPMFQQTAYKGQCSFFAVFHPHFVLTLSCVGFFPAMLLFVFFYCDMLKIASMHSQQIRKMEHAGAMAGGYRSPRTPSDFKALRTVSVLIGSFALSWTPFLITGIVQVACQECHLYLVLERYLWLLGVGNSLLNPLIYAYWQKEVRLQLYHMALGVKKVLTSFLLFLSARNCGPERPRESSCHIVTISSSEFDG
Assay: cAMP accumulation assay (cAMP Gs dynamic HTRF kit)
Settings: CHO-K1 cells stably expressing hGPR119; cAMP accumulation; 4-parameter fit
pEC50: −log10 of the molar value.

For orientation, consider the following solved cases.
>>> recorded_measurement("CCCc1cnc(N2CCC(CCCOc3cc(F)c(CC(=O)NC(CO)(CO)CO)c(F)c3)CC2)nc1 [Example 8]")
"≥ 7.00"
>>> recorded_measurement("O=C(Cc1ccc(OCCC2CCC23CCN(c2ncc(Cl)cn2)CC3)cc1F)N1CC(CNC[C@H](O)[C@@H](O)[C@H](O)[C@H](O)CO)C1 (stereo partly shown) [Example 138]")
"5.00 to 6.00"
>>> recorded_measurement("O=C(Cc1ccc(OCCCC2CCN(c3ncc(Cl)cn3)CC2)cc1F)NCCO[C@H]1O[C@H](CO)[C@@H](O)[C@H](O)[C@@H]1O (racemic) [Example 16]")
"6.00 to 7.00"

Now consider the entry below.
Prompt: For the compound O=C(CC1CN(C(=O)Cc2ccc(OCCCC3CCN(c4ncc(Cl)cn4)CC3)cc2F)C1)NCC(O)(CO)CO [Example 33] , report pEC50.
Response: 6.00 to 7.00

* * *

target: human GPR119 (hGPR119) (Homo sapiens); assay: cAMP accumulation assay (cAMP Gs dynamic HTRF kit); details: CHO-K1 cells stably expressing hGPR119; cAMP accumulation; 4-parameter fit
pEC50: −log10 of the molar value.
Reported Endpoint: pEC50

>>> recorded_measurement("CCc1cnc(N2CCC(CCCOc3ccc(CC(=O)N4CC(CNCCNC(=O)NC(CO)(CO)CO)C4)c(F)c3)CC2)nc1")
"≥ 7.00"
>>> recorded_measurement("O=C(Cc1ccc(CC(=O)N2CC(CNC[C@H](O)[C@@H](O)[C@H](O)[C@H](O)CO)C2)c(F)c1)OCCC1CCN(c2ncc(Cl)cn2)CC1 (racemic)")
"6.00 to 7.00"
>>> recorded_measurement("O=C(Cc1ccc(OCCCC2CCN(c3ncc(Cl)cn3)CC2)cc1F)N1CC(CNCC(CO)CO)C1")
"≥ 7.00"
>>> recorded_measurement("O=C(Cc1ccc(OCC2CC(C3CCN(c4ncc(Cl)cn4)CC3)C2)cc1F)N1CC(CNC[C@H](O)[C@@H](O)[C@H](O)[C@H](O)CO)C1 (stereo partly shown)")
"≥ 7.00"
>>> recorded_measurement("O=C(Cc1ccc(OCCCC2CCN(c3ncc(Cl)cn3)CC2)cc1F)NCCCCCC(=O)N1C[C@H](O)[C@@H](O)C1")
"6.00 to 7.00"

Prompt: For the compound `O=C(Cc1ccc(OCCCC2CCN(c3ncc(Cl)cn3)CC2)nc1)N1CC(CNC[C@H](O)[C@@H](O)[C@H](O)[C@H](O)CO)C1` , report pEC50.
Response: 5.00 to 6.00

Prompt: For the compound `O=C(NCCS(=O)(=O)O)C1CN(C(=O)Cc2ccc(OCCCC3CCN(c4ncc(Cl)cn4)CC3)cc2F)C1` , report pEC50.
Response: 6.00 to 7.00

Prompt: For the compound COCc1cnc(N2CCC(CCCOc3ccc(CC(=O)N4CC(C(=O)NC[C@H](O)[C@@H](O)[C@H](O)[C@H](O)CO)C4)c(F)c3)CC2)nc1 (racemic) , report pEC50.
Response: 6.00 to 7.00

Prompt: For the compound `O=C(NCC(O)(CO)CO)C1CCN(C(=O)Cc2ccc(OCCCC3CCN(c4ncc(Cl)cn4)CC3)cc2F)CC1` , report pEC50.
Response: 6.00 to 7.00

Prompt: For the compound COCc1cnc(N2CCC(CCCCOc3ccc(CC(=O)N4CC(CNC[C@H](O)[C@@H](O)[C@H](O)[C@H](O)CO)C4)c(F)c3)CC2)nc1 (racemic) , report pEC50.
Response: 6.00 to 7.00

Prompt: For the compound `O=C(CCC1CN(C(=O)Cc2ccc(OCCCC3CCN(c4ncc(Cl)cn4)CC3)cc2F)C1)NCC(O)(CO)CO` , report pEC50.
Response: ≥ 7.00

Prompt: For the compound `O=C(Cc1c(F)cc(OCCC2CC3(CCN(c4ncc(Cl)cn4)CC3)C2)cc1F)N1CC(CNC[C@H](O)[C@@H](O)[C@H](O)[C@H](O)CO)C1` , report pEC50.
Response: 6.00 to 7.00

Prompt: For the compound O=C(Cc1ccc(OCCCC2CCN(c3ncc(Cl)cn3)CC2)cc1F)N1CCC(O)(C(=O)NC[C@H](O)[C@@H](O)[C@H](O)[C@H](O)CO)C1 (stereo partly shown) , report pEC50.
Response: ≥ 7.00

* * *

molecular target: human GPR119 (hGPR119) (Homo sapiens); construct: expressed in transfected cells; test: cAMP accumulation assay (cAMP Gs dynamic HTRF kit); format: cell-based; settings: 1 h; CHO-K1 cells stably expressing hGPR119; % activity normalized to Max/Min controls; 4-parameter fit
Reported Endpoint: Emax

For orientation, consider the following solved cases.
>>> recorded_measurement("CCOc1cnc(N2CCC(CCCOc3ccc(CC(=O)N4CC(CC(=O)NCC(O)(CO)CO)C4)c(F)c3)CC2)nc1 [Example 108]")
"100 to 130%"
>>> recorded_measurement("O=C(NCCS(=O)(=O)O)C1CN(C(=O)Cc2ccc(OCCCC3CCN(c4ncc(Cl)cn4)CC3)cc2F)C1 [Example 171]")
"100 to 130%"
>>> recorded_measurement("O=C(Cc1ccc(OCCCC2CCN(c3ncc(Cl)cn3)CC2)cc1F)N1CC(CN2C[C@@H](O)[C@H](O)C2)C1 (stereo in doubt) [Example 47]")
"100 to 130%"
>>> recorded_measurement("CC(C)OC(=O)N1CCC2(CCC2CCOc2ccc(CC(=O)N3CC(CNC[C@H](O)[C@@H](O)[C@H](O)[C@H](O)CO)C3)c(F)c2)CC1 (stereo partly drawn) [Example 140]")
"< 50%"
>>> recorded_measurement("O=C(Cc1ccc(OCCCC2CCC23CCN(c2ncc(Cl)cn2)CC3)cc1F)N1CC(CNC[C@H](O)[C@@H](O)[C@H](O)[C@H](O)CO)C1 (stereo partly drawn) [Example 144]")
"100 to 130%"

Prompt: For the molecule COCc1cnc(N2CCC(CCCOc3ccc(CC(=O)N4CC(C(=O)NC[C@H](O)[C@@H](O)[C@H](O)[C@H](O)CO)C4)c(F)c3)CC2)nc1 (racemic) [Example 39] , report Emax.
Response: 100 to 130%

Prompt: For the molecule CCc1cnc(N2CCC(CCOCc3ccc(CC(=O)N4CC(CNC[C@@H](O)[C@H](O)[C@@H](O)[C@@H](O)CO)C4)c(F)c3)CC2)nc1 [Example 88] , report Emax.
Response: 50 to 100%

Prompt: For the molecule CC(C)OC(=O)N1CCC2(CC1)CC2CCCOc1ccc(CC(=O)N2CC(CNC[C@H](O)[C@@H](O)[C@H](O)[C@H](O)CO)C2)c(F)c1 (stereo partly drawn) [Example 145] , report Emax.
Response: 50 to 100%

Prompt: For the molecule O=C(NCCO[C@H]1O[C@H](CO)[C@@H](O)[C@H](O)[C@@H]1O)C1CN(C(=O)Cc2ccc(OCCCC3CCN(c4ncc(Cl)cn4)CC3)cc2F)C1 (racemic) [Example 31] , report Emax.
Response: 100 to 130%

Prompt: For the molecule O=C(Cc1ccc(OCCCC2CCN(c3ncc(Cl)cn3)CC2)cc1F)NC(CO)(CO)CO [Example 5] , report Emax.
Response: 100 to 130%

Prompt: For the molecule NCCOCCOCCNCC1CN(C(=O)Cc2ccc(OCCCC3CCN(c4ncc(Cl)cn4)CC3)cc2F)C1 [Example 52] , report Emax.
Response: 100 to 130%

Prompt: For the molecule O=C(NC(CO)(CO)CO)C1CN(C(=O)Cc2ccc(OCCCC3CCN(c4ncc(Cl)cn4)CC3)cc2F)C1 [Example 29] , report Emax.
Response: ≥ 130%

// data source = patent US20230061736A1
